Cited source: PubChem BioAssay AID1159580

- assayNotes: chemical genetic growth profiling, strain panel (AID 1159580);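 also: tested at 20 µM; growth read once vehicle control cultures reached saturation at 30 °C; 1 = growth at the plate median or of vehicle wells; lower values mean less growth of the strain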
- assaySetup: S. cerevisiae deletion strains, growth OD, locus YNL307C, strain MCK1, active compounds read low
Among all 5,500 compounds or so, about 2,000 (36%) were called active. Not shown: some 18% with an inconclusive outcome. This is one part of the list. Where a SMILES comes first, the peptide text is derived from it.
Hi there, I'd appreciate the recorded normalized growth for every entry that follows.
Answer field: number only, no words.

Prompt line: Entry under review: CC(=O)Nc1ccccc1 . Reported normalized growth?
Response line: 0.987

Prompt line: Entry under review: N[C@@H](Cc1cc(I)c(Oc2cc(I)c(O)c(I)c2)c(I)c1)C(=O)O . Reported normalized growth?
Response line: 0.851

Prompt line: Entry under review: COc1cc(S(C)=O)ccc1-c1nc2ncccc2[nH]1 (configuration not stated) . Reported normalized growth?
Response line: 1

Prompt line: Entry under review: NC(Cc1ccc(F)cc1)C(=O)O (configuration not stated) . Reported normalized growth?
Response line: 1.03

Prompt line: Entry under review: O=C(O)Cc1cc(I)c(Oc2cc(I)c(O)c(I)c2)c(I)c1 . Reported normalized growth?
Response line: 0.982

Prompt line: Entry under review: N[C@H](Cc1cc(I)c(Oc2ccc(O)c(I)c2)c(I)c1)C(=O)O . Reported normalized growth?
Response line: 0.613

Prompt line: Entry under review: NCCCCC(N)C(=O)NC(Cc1ccc(O)cc1)C(=O)NC(CCCCN)C(=O)O (stereo not drawn) (H-Lys-Tyr-Lys-OH; configuration not given here) . Reported normalized growth?
Response line: 0.993

Prompt line: Entry under review: O=C(Nc1ccccc1)c1ccccc1O . Reported normalized growth?
Response line: 0.974

Prompt line: Entry under review: CC(=O)Nc1nnc(S(N)(=O)=O)s1 . Reported normalized growth?
Response line: 0.846

Prompt line: Entry under review: CCN(CC)CCOC(=O)C(c1ccccc1)c1ccccc1 . Reported normalized growth?
Response line: 0.998

Prompt line: Entry under review: CC(C)CCCC(C)C1CCC2C3CC[C@H]4CCCC[C@]4(C)C3CC[C@]12C (some centres not stated) . Reported normalized growth?
Response line: 1.01

Prompt line: Entry under review: O=C(Nc1ccccc1)Nc1ccccc1 . Reported normalized growth?
Response line: 0.985

----------
Hi there, I'd appreciate the recorded normalized growth for every entry that follows.
- assayNotes: chemical genetic growth profiling, strain panel (AID 1159580);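 also: tested at 20 µM; growth read once vehicle control cultures reached saturation at 30 °C; 1 = growth at the plate median or of vehicle wells; lower values mean less growth of the strain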
- assaySetup: S. cerevisiae deletion strains, growth OD, locus YNL183C, strain NPR1, active compounds read low
Screen size: about 5,500 compounds; about 2,000 (36%) were called active. Another 18% or so got no clear call; they are omitted. Some of the results follow.
Answer field: number only, no words.

Prompt line: Entry under review: O=C1CSC(c2ccc(C(F)(F)F)cc2)N1c1ccc(C(F)(F)F)cc1 (stereo not given) . Reported normalized growth?
Response line: 0.898

Prompt line: Entry under review: CC12CC3CC(C)(C1)CC(N)(C3)C2 . Reported normalized growth?
Response line: 0.935

Prompt line: Entry under review: O=c1cc(-c2ccccc2)oc2cc(O)cc(O)c12 . Reported normalized growth?
Response line: 0.894

Prompt line: Entry under review: C[C@H]1CC2C([C@@H](O)C[C@@]3(C)C2CC[C@]3(O)C(=O)COC(=O)CCC(=O)O)[C@@]2(C)C=CC(=O)C=C12 (stereo not given in full) . Reported normalized growth?
Response line: 0.995

Prompt line: Entry under review: c1ccc2nc(N3CCNCC3)ccc2c1 . Reported normalized growth?
Response line: 0.95

Prompt line: Entry under review: O=c1cc(-c2cc(O)c(O)c(O)c2)oc2cc(O)cc(O)c12 . Reported normalized growth?
Response line: 0.966

Prompt line: Entry under review: COc1cc(C)c(C(=O)Oc2cc(C)c(C(=O)O)c(O)c2C)c(OC)c1C . Reported normalized growth?
Response line: 0.955

Prompt line: Entry under review: Cc1nc2sccn2c(=O)c1CCN1CCC(=C(c2ccc(F)cc2)c2ccc(F)cc2)CC1 . Reported normalized growth?
Response line: 0.935

Prompt line: Entry under review: CN1CCN(C2=Nc3ccccc3Oc3ccc(Cl)cc32)CC1 . Reported normalized growth?
Response line: 0.951

Prompt line: Entry under review: O=[N+]([O-])c1cccc2cn[nH]c12 . Reported normalized growth?
Response line: 0.951

Prompt line: Entry under review: CC(=O)Nc1ccccc1 . Reported normalized growth?
Response line: 0.915

Prompt line: Entry under review: O=C(Nc1ccccc1)c1ccccc1O . Reported normalized growth?
Response line: 0.885

Prompt line: Entry under review: CNC(=O)Oc1ccc2c(c1)[C@]1(C)CCN(C)[C@@H]1N2C . Reported normalized growth?
Response line: 0.944

Prompt line: Entry under review: Cc1ccc(N2C(=O)CSC2c2ccc(Cl)c(Cl)c2)cc1Cl (stereo not given) . Reported normalized growth?
Response line: 0.994

Prompt line: Entry under review: CSC(=NNc1ccccc1)NC(=O)c1c(Cl)cccc1Cl . Reported normalized growth?
Response line: 0.927

Prompt line: Entry under review: O=c1cc(-c2ccccc2)oc2cc(O)c(O)cc12 . Reported normalized growth?
Response line: 0.951

Prompt line: Entry under review: Nc1cc(-c2ccncc2)c[nH]c1=O . Reported normalized growth?
Response line: 0.977

Prompt line: Entry under review: O=C(Nc1ccccc1)Nc1ccccc1 . Reported normalized growth?
Response line: 0.949

Prompt line: Entry under review: S=P(N1CC1)(N1CC1)N1CC1 . Reported normalized growth?
Response line: 0.932

Prompt line: Entry under review: O=c1cc(-c2ccccc2)oc2c(O)c(O)ccc12 . Reported normalized growth?
Response line: 1.01

Prompt line: Entry under review: Clc1ccc2c(c1)C(N1CCNCC1)=Nc1ccccc1O2 . Reported normalized growth?
Response line: 0.966

Prompt line: Entry under review: N#Cc1ccc(NC(=O)Nc2cccc3ccccc23)cc1 . Reported normalized growth?
Response line: 0.943

Prompt line: Entry under review: Nc1ccncc1 . Reported normalized growth?
Response line: 0.912

Prompt line: Entry under review: Cc1nc2ccccn2c(=O)c1CCN1CCC(C(=O)c2ccc(F)cc2)CC1 . Reported normalized growth?
Response line: 0.979

Prompt line: Entry under review: COc1cc2c(cc1-c1cc3cc4ccoc4cc3oc1=O)OCO2 . Reported normalized growth?
Response line: 0.925

----------
- assayNotes: chemical genetic growth profiling, strain panel (AID 1159580);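 also: tested at 20 µM; growth read once vehicle control cultures reached saturation at 30 °C; 1 = growth at the plate median or of vehicle wells; lower values mean less growth of the strain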
- assaySetup: S. cerevisiae deletion strains, growth OD, locus YBR229C, strain ROT2
Screen size: about 5,500 compounds; about 2,000 (36%) were called active. About 18% were inconclusive and are not listed. Cut-off read from the data, not from the text of the source: active = normalized growth mostly below about 0.91 (no sharp cut-off); inconclusive = no clear call, values can overlap the other calls; inactive = mostly above about 0.92. The list shows a part of the results. Where a SMILES comes first, the peptide text is derived from it.
API: response.call in active, inactive

Prompt line: Identify the outcome logged in this assay for the molecule shown: C[C@H](CCC(=O)O)[C@H]1CCC2C3C(CC[C@@]21C)[C@@]1(C)CC[C@@H](O)C[C@H]1C[C@H]3O (some centres not stated)
Response line: inactive

Prompt line: Identify the outcome logged in this assay for the molecule shown: C[C@]12C=CC(=O)C=C1CCC1C3C[C@@H](O)[C@](O)(C(=O)CO)[C@@]3(C)C[C@H](O)[C@@]12F (some centres not stated)
Response line: inactive

Prompt line: Identify the outcome logged in this assay for the molecule shown: COc1cc2c(cc1O)C(Cc1ccc(O)cc1)N(C)CC2 (configuration not stated)
Response line: inactive

Prompt line: Identify the outcome logged in this assay for the molecule shown: COc1ccc(C(=O)C2CCNCC2)cc1
Response line: inactive

Prompt line: Identify the outcome logged in this assay for the molecule shown: O=C(Nc1nncs1)c1ccncc1
Response line: inactive

Prompt line: Identify the outcome logged in this assay for the molecule shown: O=C1/C(=C/c2ccc(Cl)cc2)COc2ccc(F)cc21
Response line: inactive

Prompt line: Identify the outcome logged in this assay for the molecule shown: COc1ccc(C(=O)CC(=O)c2ccc(C(C)(C)C)cc2)cc1
Response line: inactive

Prompt line: Identify the outcome logged in this assay for the molecule shown: CCC(=O)Nc1ccc(Cl)c(Cl)c1
Response line: inactive

Prompt line: Identify the outcome logged in this assay for the molecule shown: O=C(Nc1nccs1)c1ccc([N+](=O)[O-])cc1
Response line: inactive

Prompt line: Identify the outcome logged in this assay for the molecule shown: COC(=O)c1c(C)cc(OC(=O)c2c(C)c(Cl)c(O)c(C=O)c2O)c(C)c1O
Response line: inactive

Prompt line: Identify the outcome logged in this assay for the molecule shown: COc1cc(C)c(C(=O)Oc2cc(C)c(C(=O)O)c(O)c2C)c(OC)c1C
Response line: inactive

Prompt line: Identify the outcome logged in this assay for the molecule shown: COc1c(Cl)ccc(Cl)c1C(=O)O
Response line: inactive

Prompt line: Identify the outcome logged in this assay for the molecule shown: COc1ccc(-c2ccc(C=C(C#N)C#N)s2)cc1
Response line: active

Prompt line: Identify the outcome logged in this assay for the molecule shown: O=C(CSc1nnc(NC(=O)c2cccc([N+](=O)[O-])c2)s1)Nc1ccc2c(c1)OCO2
Response line: inactive

Prompt line: Identify the outcome logged in this assay for the molecule shown: COC(=O)CCC(=O)O[C@H]1CCC2(C)C(CCC3C2C(=O)[C@@H](O)C2(C)C3CC3OC4(CCC(C)CO4)[C@@H](C)C32)C1 (some centres not stated)
Response line: inactive

Prompt line: Identify the outcome logged in this assay for the molecule shown: O=c1[nH]cnc2[nH]ncc12
Response line: inactive

Prompt line: Identify the outcome logged in this assay for the molecule shown: O=C(O)c1ccccc1C(=O)Nc1ccc(S(=O)(=O)Nc2nccs2)cc1
Response line: inactive

Prompt line: Identify the outcome logged in this assay for the molecule shown: C/C(=N/Nc1c(Cl)cc(Cl)cc1Cl)c1cc(F)ccc1OC(=O)c1ccccc1F
Response line: inactive

Prompt line: Identify the outcome logged in this assay for the molecule shown: OC1=Cc2c(O)cc(O)cc2OC1(O)c1ccc(O)c(O)c1 (configuration not stated)
Response line: inactive

Prompt line: Identify the outcome logged in this assay for the molecule shown: NCCCCC(N)C(=O)NC(Cc1ccc(O)cc1)C(=O)NC(CCCCN)C(=O)O (stereo not drawn) (H-Lys-Tyr-Lys-OH; configuration not given here)
Response line: inactive

Prompt line: Identify the outcome logged in this assay for the molecule shown: CN(C)C(=O)Nc1ccc(Cl)c(Cl)c1
Response line: inactive

Prompt line: Identify the outcome logged in this assay for the molecule shown: CC(=O)c1ccc(-c2ccc(Cl)c(Cl)c2)o1
Response line: active
